- assay system: UniProt P11229
- Sequence (P11229 whole entry): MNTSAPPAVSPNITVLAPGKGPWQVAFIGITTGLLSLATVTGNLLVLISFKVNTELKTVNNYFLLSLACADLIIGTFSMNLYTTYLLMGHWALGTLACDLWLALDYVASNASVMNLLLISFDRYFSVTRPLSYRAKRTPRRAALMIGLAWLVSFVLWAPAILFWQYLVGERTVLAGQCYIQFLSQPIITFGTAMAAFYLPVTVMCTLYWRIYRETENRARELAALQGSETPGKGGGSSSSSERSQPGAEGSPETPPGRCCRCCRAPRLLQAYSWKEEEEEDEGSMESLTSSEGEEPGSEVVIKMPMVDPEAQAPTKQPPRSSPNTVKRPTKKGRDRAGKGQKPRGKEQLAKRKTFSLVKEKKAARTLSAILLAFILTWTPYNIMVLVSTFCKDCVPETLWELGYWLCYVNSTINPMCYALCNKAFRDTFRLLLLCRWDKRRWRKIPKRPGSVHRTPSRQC
- setup conditions: Compound concentration 10 µM; call rule not given here
Respond using exactly one of the listed classes: active, inactive

Ask: Please let me know the test result on file for `COc1cc(-n2cnc3cc(-c4ccc(Cl)cc4)sc3c2=O)ccc1OCCN1CCCC1` .
Result: active

Ask: Could you check what this test reported for `C/C(=N\NC(=O)[C@@H]1C(=O)NC[C@H]1c1ccccc1)c1cccc(Br)c1` ?
Result: inactive

Ask: For `C=CCN1C[C@H](C)N([C@H](c2ccc(C(=O)N(CC)CC)cc2)c2cccc(O)c2)C[C@H]1C` , which call appears in the assay record?
Result: inactive

Ask: Please share the test call associated with `Cc1nnn(-c2ccc(-c3ccc(C4(C(=O)O)CC4)cc3)cc2)c1NC(=O)O[C@H](C)c1ccccc1` .
Result: inactive

Ask: Query: recorded result category for CC(C)NCC(O)COc1ccc(CCOCC2CC2)cc1 (stereo not given) in this test
Result: inactive

Ask: Please state the recorded outcome for this compound: CC(C)NCC(O)c1ccc(N)c(C#N)c1 (stereo not given)
Result: inactive

Ask: I would be grateful if you could indicate the recorded call for `C[N+]1(C)[C@@H]2C[C@@H](OC(=O)C(O)(c3cccs3)c3cccs3)C[C@H]1[C@@H]1O[C@@H]12` .
Result: active

Ask: Please state the recorded outcome for this compound: `O=C(O)c1cc(-c2ccc(C3CCNCC3)cc2)c2ccc(-c3ccc(C(F)(F)F)cc3)cc2c1`
Result: inactive

Ask: Called result for `COc1cccc([C@@H](C)NCCCc2ccccc2Cl)c1`
Result: inactive

Ask: Query: recorded result category for `CC(C)C[C@H](NC(=O)N1CCCCCC1)C(=O)N[C@H](Cc1cn(C)c2ccccc12)C(=O)N[C@H](Cc1ccccn1)C(=O)O` in this test
Result: inactive

###

- assay system: D(3) dopamine receptor (Homo sapiens)
- setup conditions: Compound concentration 10 µM; call rule not given here
Choose the fitting class; nothing outside active, inactive is accepted.

Ask: Field: outcome | Entry: `COc1ccc(/C=C/CCCCOc2ccc(C(=O)c3cccc(C(=O)O)c3)cc2CCC(=O)O)cc1`
Result: active

Ask: # outcome recorded in this test, key = `Cc1cccc([C@H](C)c2c[nH]cn2)c1C`
Result: inactive

Ask: Each compound tested received a call. Report the one for `O=C(O)COc1cccc(CN(Cc2ccc(-n3cccn3)cc2)S(=O)(=O)c2cccnc2)c1` .
Result: inactive

Ask: Kindly provide the recorded test outcome for the following compound: `CCc1nn2c(C)cc(C)nc2c1Cc1ccc(-c2nnc(C3CCNCC3)o2)cc1`
Result: inactive

Ask: Status in this test for Cc1ccccc1C(=O)Nc1ccc(C(=O)N2CCCC(O)c3cc(Cl)ccc32)c(C)c1 (stereo not given) ?
Result: inactive

Ask: How did this test come out for `Cc1cn2cc(CC(=O)N3CCC4(CC3)CN(Cc3ccc(-n5nccn5)cc3Cl)C4)nc2s1` ?
Result: active

Ask: State the result this test recorded for `c1nc(CC2CCNCC2)c[nH]1` .
Result: inactive

Ask: Give the logged outcome of this assay for the following compound: `CC(C)C[C@H](NC(=O)N1CCCCCC1)C(=O)N[C@H](Cc1cn(C)c2ccccc12)C(=O)N[C@H](Cc1ccccn1)C(=O)O`
Result: inactive

Ask: So what was the verdict on `CCCCCNC(=O)NS(=O)(=O)c1cc([N+](=O)[O-])ccc1NC1CCCCC1` in this test?
Result: active

Ask: Hi team, can someone confirm the assay call for `C[C@H](NC[C@H](O)CP(=O)(O)CC1CCCCC1)c1ccc(Cl)c(Cl)c1` ?
Result: inactive

###

- assay system: UniProt P18825
- Sequence (P18825 whole entry): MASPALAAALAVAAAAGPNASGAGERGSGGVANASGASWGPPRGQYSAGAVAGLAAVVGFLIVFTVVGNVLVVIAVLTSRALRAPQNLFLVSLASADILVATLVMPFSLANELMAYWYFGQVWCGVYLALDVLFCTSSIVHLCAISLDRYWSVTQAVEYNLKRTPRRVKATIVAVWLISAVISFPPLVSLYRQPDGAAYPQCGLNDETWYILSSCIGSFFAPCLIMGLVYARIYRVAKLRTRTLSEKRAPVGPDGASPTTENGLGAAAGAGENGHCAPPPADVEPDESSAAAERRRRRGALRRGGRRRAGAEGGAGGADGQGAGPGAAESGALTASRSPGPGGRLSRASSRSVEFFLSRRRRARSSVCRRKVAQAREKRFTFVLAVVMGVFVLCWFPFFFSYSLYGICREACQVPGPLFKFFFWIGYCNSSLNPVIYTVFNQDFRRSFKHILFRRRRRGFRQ
- setup conditions: Compound concentration 10 µM; call rule not given here
Respond using exactly one of the listed classes: active, inactive

Ask: # outcome recorded in this test, key = OCc1cc(C(O)CNCCCCCCOCCCCc2ccccc2)ccc1O (stereo not given)
Result: inactive

Ask: State the result this test recorded for `CCCNS(=O)(=O)Nc1ncnc(OCCOc2ncc(Br)cn2)c1-c1ccc(Br)cc1` .
Result: inactive

Ask: Tell me the recorded outcome of this test for `CN1CC(=O)N=C1NC(=O)Nc1cccc(Cl)c1` .
Result: inactive

Ask: Dear all, I need the recorded test outcome for `COc1ccc(Br)cc1S(=O)(=O)NC(=O)/C=C/c1ccccc1Cc1ccc2ccccc2c1` , thank you.
Result: inactive

Ask: Which outcome was entered for the molecule `CN(C)S(=O)(=O)c1ccc(NC(=S)N2CCC(C(O)(c3ccccc3)c3ccccc3)CC2)cc1` in this test?
Result: inactive

Ask: How did this test come out for `CCCCN1CCC(COC(=O)c2cc(Cl)c(N)c3c2OCCO3)CC1` ?
Result: active

Ask: What classification did `COc1cc(-n2cnc3cc(-c4ccc(Cl)cc4)sc3c2=O)ccc1OCCN1CCCC1` end up with in this test?
Result: active

Ask: # outcome recorded in this test, key = `Cc1nnn(-c2ccc(-c3ccc(C4(C(=O)O)CC4)cc3)cc2)c1NC(=O)O[C@H](C)c1ccccc1`
Result: inactive

Ask: // param item: `C/C(=N\NC(=O)[C@@H]1C(=O)NC[C@H]1c1ccccc1)c1cccc(Br)c1` ; yields the recorded call
Result: inactive

Ask: Lab log entry: `CN1CCC(=C2c3ccccc3CC(=O)c3sccc32)CC1` — outcome as called in the assay?
Result: inactive

Ask: Recorded test call requested for `Brc1c(NC2=NCCN2)ccc2nccnc12`
Result: active

Ask: Which outcome was entered for the molecule C[C@@H](NCCc1ccc(O)cc1)[C@@H](O)c1ccc(O)cc1 (relative stereo) in this test?
Result: inactive

Ask: GET /call?item= `CCc1nn2c(C)cc(C)nc2c1Cc1ccc(-c2nnc(C3CCNCC3)o2)cc1` returns the recorded outcome of this test.
Result: inactive

Ask: Please share the test call associated with `COc1ccnc(N2CCC3(CCCN(Cc4c[nH]c5ccccc45)C3=O)CC2)n1` .
Result: inactive

Ask: Please share the test call associated with `CS(=O)(=O)NC[C@H]1CC[C@H](Nc2nc3c(s2)CCSc2ccccc2-3)CC1` .
Result: inactive

Ask: What is the recorded call for this molecule in the test? `COc1cc2nc(N3CCN(C(=O)c4ccco4)CC3)nc(N)c2cc1OC`
Result: active

Ask: Status in this test for `COC(=O)C1=C(C)NC(C)=C(C(=O)OCCCN2CCC(c3ccccc3)(c3ccccc3)CC2)[C@H]1c1cccc([N+](=O)[O-])c1` ?
Result: active

Ask: Recorded test call requested for `Cc1c(C2=CCN(C(=O)N(C)C(C)C)CC2)nnn1-c1cccnc1F`
Result: inactive

Ask: Fill in: this test's call for CC(C)NCC(O)COc1cccc2ccccc12 (stereo not given) is ___
Result: inactive

Ask: Dear colleague, could you share the recorded outcome for `COc1ccccc1CN[C@H]1C2CCN(CC2)[C@H]1C(c1ccccc1)c1ccccc1` when you have a moment?
Result: inactive

Ask: What outcome does the record of this test show for `CC(C)(C)NC[C@H](O)COc1nsnc1N1CCOCC1` ?
Result: inactive

Ask: Please state the recorded outcome for this molecule: `CCc1ccc(OCc2ccccc2C(=O)Nc2ccc3nc(C)cc(N)c3c2)cc1`
Result: inactive

Ask: Which outcome was assigned to `OC1(c2ccc(Cl)cc2)CCN(Cc2c[nH]c3ccccc23)CC1` in this test?
Result: inactive

Ask: How was `Cc1cccc([C@H](C)c2c[nH]cn2)c1C` classified in this test?
Result: active

Ask: Entry `Cc1ccccc1N1CCN(S(=O)(=O)C[C@]23CC[C@H](C[C@@H]2NC(=O)[C@@H](N)CCS(C)(=O)=O)C3(C)C)CC1` : call = ?
Result: inactive

Ask: For this molecule, state the assay outcome: `CCc1cc2c(cc1CC)CC(NC[C@H](O)c1ccc(O)c3[nH]c(=O)ccc13)C2`
Result: inactive

Ask: What is the recorded call for this molecule in the test? `COc1ccc(S(=O)(=O)N2c3ccc(Cl)cc3[C@](O)(c3ccccc3Cl)[C@@H]2C(=O)N2CCC[C@H]2C(N)=O)cc1OC`
Result: inactive

Ask: # lookup: test call for CCOC(=O)c1c(C)[nH]c2ccc3c(c12)CN1CCc2cc(OC)ccc2C1O3 (stereo not given)
Result: active

Ask: Tell me the recorded outcome of this test for `CCc1cc(C(C)=O)c(O)cc1OCCCCCC(C)(C)c1nn[nH]n1` .
Result: inactive

Ask: Assay result, entry CC(C)NCC(O)c1ccc(N)c(C#N)c1 (stereo not given) — outcome?
Result: inactive

Ask: Assay outcome for `Nc1nc(NCCc2ccc(O)cc2)nc2nc(-c3ccco3)nn12` : what was it?
Result: inactive

Ask: For `O=C(O)C1CN(Cc2ccc(-c3nc4cc(Cc5ccccc5F)ccc4s3)c(F)c2)C1` , which call appears in the assay record?
Result: inactive

Ask: Which outcome was entered for the molecule `Cc1cn2cc(CC(=O)N3CCC4(CC3)CN(Cc3ccc(-n5nccn5)cc3Cl)C4)nc2s1` in this test?
Result: inactive

Ask: How was `C[C@H](Cc1cc2c(c(C(N)=O)c1)N(CCCO)CC2)NCCOc1ccccc1OCC(F)(F)F` classified in this test?
Result: active

Ask: Call for entry `COc1ccc(NC(=O)c2ccc(-c3ccc(-c4noc(C)n4)cc3C)cc2)cc1OCCN(C)C` :
Result: active

Ask: GET /call?item= `c1ccc(N2CCN(Cc3nc4ccccc4[nH]3)CC2)nc1` returns the recorded outcome of this test.
Result: inactive

Ask: Could you check what this test reported for `Cc1csc(NC(=O)c2cc(F)cc(Oc3cncnc3)c2)n1` ?
Result: inactive

Ask: Please let me know the test result on file for `Cc1cc(C)c(N)c(C#Cc2cccc(F)c2)n1` .
Result: inactive

Ask: What classification did `Clc1ccc(CCCOCCCN2CCCCC2)cc1` end up with in this test?
Result: inactive

Ask: GET /call?item= `COc1ccc2cc(S(=O)(=O)N[C@H](CC(=O)N[C@H](Cc3ccc(CN4[C@H](C)CCC[C@@H]4C)cc3)C(=O)N(C)C(C)C)c3ccc4c(c3)OCO4)ccc2c1` returns the recorded outcome of this test.
Result: active
